B1: HDV Ribozyme (parent)
chain: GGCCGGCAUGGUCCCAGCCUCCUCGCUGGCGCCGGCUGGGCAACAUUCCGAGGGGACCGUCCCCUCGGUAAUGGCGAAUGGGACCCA

# Variants of: B1
# measurementNotes: self-cleavage, relative activity (ratio to wild type); higher = more cleavage; co-transcriptional
Entries and their measured self-cleavage follow.
Just the number, please.

// below: answered variants
>  <mutantLabel>
G34A C36G

>  <self-cleavage>
0.122

$$$$
>  <mutantLabel>
C41A G82A

>  <self-cleavage>
0.223

$$$$
>  <mutantLabel>
G17C A45C

>  <self-cleavage>
0.0519

$$$$

Please list self-cleavage recorded for the variant G10A U46G
0.536

Supply recorded self-cleavage for C33U U37C here.
0.923

Determine from records and report self-cleavage for C57U C75G
0.0369

Entry U20C C30U needs its self-cleavage filled in; supply it.
0.157

Dear colleague, please send me the reported self-cleavage for G28C C61A when you can.
0.0755

Please give measured self-cleavage of the following entry: U23C C24U
0.57

Please list self-cleavage recorded for the variant G10C U72G
0.369

For the variant G6C C32A , report self-cleavage.
0.482
